Test system: HuH7
experiment.summary: Cell proliferation assay
Assay type: cell-based
experimental.context: Homo sapiens, Huh-7; HuH7, 144 h
pIC50: −log10 of the molar value.
measured.attribute: pIC50

QUERY: # pIC50 lookup, item O=C(O)c1ccc(CN2CCC(CN[C@@H]3C[C@H]3c3ccccc3)CC2)cc1 [GSK2879552]
RESULT: < 4.00

# input for lookup
QUERY: # pIC50 lookup, item N[C@H]1CC[C@H](N[C@@H]2C[C@H]2c2ccccc2)CC1 [ORY1001]
RESULT: < 4.00

----------
target.of.assay: Truncated human LSD1 (residues 172–836) (Homo sapiens, UniProt O60341)
experiment.summary: Surface plasmon resonance (Biacore)
experimental.context: 25°C, read-out: dissociation constant (KD)
measured.attribute: pKd
# pKd: negative log10 of molar concentration; output just the value

QUERY: Request - read-out pKd | tested on Truncated human LSD1 (residues 172–836) (Homo sapiens, UniProt O60341) | compound C/C(=N\NC(=O)c1cccc(S(=O)(=O)N2CCOCC2)c1)c1cc(Cl)ccc1O
RESULT: 7.70

----------
target.of.assay: ATM (Homo sapiens, UniProt Q13315)
Sequence (Q13315 whole entry, species assumed): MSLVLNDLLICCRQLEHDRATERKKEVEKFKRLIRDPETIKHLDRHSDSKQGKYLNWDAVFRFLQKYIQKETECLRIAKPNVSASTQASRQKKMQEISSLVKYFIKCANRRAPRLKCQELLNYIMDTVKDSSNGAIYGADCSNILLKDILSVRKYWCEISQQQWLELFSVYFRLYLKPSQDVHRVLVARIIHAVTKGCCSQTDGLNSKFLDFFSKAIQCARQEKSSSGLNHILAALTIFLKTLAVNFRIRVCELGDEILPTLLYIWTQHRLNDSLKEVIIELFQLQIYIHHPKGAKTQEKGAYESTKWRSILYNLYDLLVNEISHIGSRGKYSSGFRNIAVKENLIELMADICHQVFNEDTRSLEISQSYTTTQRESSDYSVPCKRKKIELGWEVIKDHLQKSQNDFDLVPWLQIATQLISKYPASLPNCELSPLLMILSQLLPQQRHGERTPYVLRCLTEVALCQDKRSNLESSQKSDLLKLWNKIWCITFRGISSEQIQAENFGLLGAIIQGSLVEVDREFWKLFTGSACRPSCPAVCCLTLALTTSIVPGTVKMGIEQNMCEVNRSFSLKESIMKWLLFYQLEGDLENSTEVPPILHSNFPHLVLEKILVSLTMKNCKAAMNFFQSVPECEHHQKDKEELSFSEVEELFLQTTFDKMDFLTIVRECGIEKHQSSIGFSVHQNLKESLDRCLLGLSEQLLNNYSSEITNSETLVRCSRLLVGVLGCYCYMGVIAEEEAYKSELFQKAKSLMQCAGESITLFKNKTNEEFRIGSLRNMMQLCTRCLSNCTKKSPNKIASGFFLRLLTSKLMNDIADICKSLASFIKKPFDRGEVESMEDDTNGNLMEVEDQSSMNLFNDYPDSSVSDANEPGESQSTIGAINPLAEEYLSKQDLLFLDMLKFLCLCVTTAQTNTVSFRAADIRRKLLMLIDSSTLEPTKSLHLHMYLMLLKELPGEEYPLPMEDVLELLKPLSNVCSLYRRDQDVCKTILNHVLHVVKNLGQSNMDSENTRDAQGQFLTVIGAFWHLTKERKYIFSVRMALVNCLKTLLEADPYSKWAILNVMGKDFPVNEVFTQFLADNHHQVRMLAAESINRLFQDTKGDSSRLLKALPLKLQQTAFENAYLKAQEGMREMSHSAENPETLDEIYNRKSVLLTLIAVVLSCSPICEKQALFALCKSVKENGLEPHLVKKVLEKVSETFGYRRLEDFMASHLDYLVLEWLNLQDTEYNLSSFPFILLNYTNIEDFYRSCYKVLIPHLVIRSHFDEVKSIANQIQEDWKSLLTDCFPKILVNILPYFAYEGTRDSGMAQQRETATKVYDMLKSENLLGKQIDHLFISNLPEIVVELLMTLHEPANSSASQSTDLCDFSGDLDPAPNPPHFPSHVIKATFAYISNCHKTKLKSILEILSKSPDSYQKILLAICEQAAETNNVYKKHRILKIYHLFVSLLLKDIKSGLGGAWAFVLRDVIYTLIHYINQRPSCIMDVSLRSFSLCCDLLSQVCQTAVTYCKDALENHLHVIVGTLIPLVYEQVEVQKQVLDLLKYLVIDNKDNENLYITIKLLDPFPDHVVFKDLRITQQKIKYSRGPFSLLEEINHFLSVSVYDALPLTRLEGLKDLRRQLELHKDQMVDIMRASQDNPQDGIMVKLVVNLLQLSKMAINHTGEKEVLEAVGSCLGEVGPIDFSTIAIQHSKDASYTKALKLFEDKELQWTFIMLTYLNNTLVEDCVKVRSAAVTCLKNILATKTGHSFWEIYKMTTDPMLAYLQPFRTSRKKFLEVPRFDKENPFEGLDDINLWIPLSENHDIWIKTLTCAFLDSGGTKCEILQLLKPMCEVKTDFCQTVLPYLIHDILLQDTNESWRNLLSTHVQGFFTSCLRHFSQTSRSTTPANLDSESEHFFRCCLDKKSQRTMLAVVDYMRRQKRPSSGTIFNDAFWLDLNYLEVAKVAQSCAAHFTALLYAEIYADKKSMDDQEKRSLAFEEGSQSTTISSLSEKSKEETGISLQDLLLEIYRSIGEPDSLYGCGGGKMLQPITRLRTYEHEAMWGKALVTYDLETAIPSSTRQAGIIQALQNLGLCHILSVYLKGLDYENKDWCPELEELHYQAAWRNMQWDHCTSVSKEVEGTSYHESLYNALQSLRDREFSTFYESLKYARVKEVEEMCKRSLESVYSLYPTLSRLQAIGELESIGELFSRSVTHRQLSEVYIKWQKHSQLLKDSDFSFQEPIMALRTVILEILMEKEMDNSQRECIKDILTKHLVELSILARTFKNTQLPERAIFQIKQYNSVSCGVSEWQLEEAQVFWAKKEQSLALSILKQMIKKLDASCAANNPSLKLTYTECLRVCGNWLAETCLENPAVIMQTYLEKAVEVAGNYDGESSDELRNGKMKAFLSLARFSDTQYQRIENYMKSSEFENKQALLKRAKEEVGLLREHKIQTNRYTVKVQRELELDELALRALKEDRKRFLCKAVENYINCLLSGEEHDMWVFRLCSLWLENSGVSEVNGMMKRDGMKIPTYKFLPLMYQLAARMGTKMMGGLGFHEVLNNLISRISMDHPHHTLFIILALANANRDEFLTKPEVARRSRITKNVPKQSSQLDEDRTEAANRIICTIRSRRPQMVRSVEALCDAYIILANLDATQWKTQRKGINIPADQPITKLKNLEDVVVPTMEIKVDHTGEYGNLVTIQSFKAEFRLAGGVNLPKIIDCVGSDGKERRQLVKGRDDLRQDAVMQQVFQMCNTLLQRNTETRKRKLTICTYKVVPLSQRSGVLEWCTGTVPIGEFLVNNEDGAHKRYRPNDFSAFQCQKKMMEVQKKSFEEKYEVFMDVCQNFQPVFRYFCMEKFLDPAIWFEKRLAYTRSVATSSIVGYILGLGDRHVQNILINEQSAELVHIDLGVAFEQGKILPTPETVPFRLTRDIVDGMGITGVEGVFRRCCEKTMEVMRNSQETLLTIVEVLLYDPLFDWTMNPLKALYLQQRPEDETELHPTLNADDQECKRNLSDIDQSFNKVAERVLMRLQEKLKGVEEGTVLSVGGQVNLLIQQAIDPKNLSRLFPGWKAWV
measured.attribute: pIC50
# pIC50: negative log10 of molar concentration; output just the value

QUERY: Request - read-out pIC50 | tested on ATM (Homo sapiens, UniProt Q13315) | molecule O=C(N/N=C1\CCc2c(Cl)ccc(O)c21)c1cccc(S(=O)(=O)N2CCOCC2)c1
RESULT: 5.01

----------
Test system: QGY7701
experiment.summary: Cell proliferation assay
Type: cell-based
experimental.context: Homo sapiens, QGY7701, 144 h
pIC50: −log10 of the molar value.
measured.attribute: pIC50

QUERY: Request - read-out pIC50 | tested on QGY7701 | molecule N[C@H]1CC[C@H](N[C@@H]2C[C@H]2c2ccccc2)CC1
RESULT: < 4.00

# input for lookup
QUERY: Request - read-out pIC50 | tested on QGY7701 | molecule O=C(O)c1ccc(CN2CCC(CN[C@@H]3C[C@H]3c3ccccc3)CC2)cc1
RESULT: < 4.00

----------
target.of.assay: IGF-1R (Homo sapiens)
Sequence (P08069 31-1367, species assumed): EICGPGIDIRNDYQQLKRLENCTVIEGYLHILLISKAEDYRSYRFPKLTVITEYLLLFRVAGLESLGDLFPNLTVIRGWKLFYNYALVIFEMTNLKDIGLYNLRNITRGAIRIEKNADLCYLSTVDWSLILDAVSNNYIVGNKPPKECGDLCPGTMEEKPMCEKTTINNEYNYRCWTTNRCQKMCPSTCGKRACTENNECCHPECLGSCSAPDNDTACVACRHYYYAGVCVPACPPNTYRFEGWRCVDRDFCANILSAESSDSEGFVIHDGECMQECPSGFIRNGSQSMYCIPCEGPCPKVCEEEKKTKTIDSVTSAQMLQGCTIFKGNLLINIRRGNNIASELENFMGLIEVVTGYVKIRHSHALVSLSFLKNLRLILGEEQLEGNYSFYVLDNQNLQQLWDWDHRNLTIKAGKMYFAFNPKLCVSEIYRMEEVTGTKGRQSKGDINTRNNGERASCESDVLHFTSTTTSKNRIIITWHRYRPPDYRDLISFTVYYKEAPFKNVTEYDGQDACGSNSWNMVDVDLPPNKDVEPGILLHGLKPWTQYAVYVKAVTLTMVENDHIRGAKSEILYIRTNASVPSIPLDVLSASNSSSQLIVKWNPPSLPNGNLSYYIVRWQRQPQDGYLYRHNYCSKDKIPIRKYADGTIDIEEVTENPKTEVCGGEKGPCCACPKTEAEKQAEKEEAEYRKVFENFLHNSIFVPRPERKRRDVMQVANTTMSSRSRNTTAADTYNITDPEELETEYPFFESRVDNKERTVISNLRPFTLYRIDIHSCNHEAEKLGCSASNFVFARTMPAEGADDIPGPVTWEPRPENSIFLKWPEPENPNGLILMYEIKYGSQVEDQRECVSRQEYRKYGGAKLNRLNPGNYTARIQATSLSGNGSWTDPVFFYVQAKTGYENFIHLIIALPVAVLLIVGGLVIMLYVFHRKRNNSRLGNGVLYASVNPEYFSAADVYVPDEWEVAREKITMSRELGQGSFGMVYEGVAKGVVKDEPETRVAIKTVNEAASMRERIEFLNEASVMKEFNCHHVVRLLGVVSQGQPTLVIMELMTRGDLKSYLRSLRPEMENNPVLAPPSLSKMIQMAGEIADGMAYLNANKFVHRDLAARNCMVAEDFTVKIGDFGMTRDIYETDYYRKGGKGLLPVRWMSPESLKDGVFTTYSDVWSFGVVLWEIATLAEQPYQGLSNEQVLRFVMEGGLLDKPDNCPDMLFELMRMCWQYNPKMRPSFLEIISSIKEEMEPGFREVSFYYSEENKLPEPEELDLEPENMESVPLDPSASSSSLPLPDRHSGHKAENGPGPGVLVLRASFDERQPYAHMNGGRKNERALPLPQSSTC
pIC50: −log10 of the molar value.
measured.attribute: pIC50

QUERY: Request - read-out pIC50 | tested on IGF-1R (Homo sapiens) | compound O=C(N/N=C1\CCc2c(Cl)ccc(O)c21)c1cccc(S(=O)(=O)N2CCOCC2)c1
RESULT: < 5.00
